target: HLA-C*03:03; assay: IEDB peptide-MHC binding, purified MHC/direct/fluorescence; filed as Kd, often an IC50 or EC50 that approximates it; bounds were set here for any values at or beyond the usual limits of such assays; conditions: source organism: Yellow fever virus
readout_type: Kd

The recorded Kd for entry "YMPDVLEKL" equals ≥ 20 µM

* * *

target: HLA-B*15:01; assay: IEDB peptide-MHC binding, purified MHC/direct/fluorescence; filed as Kd, often an IC50 or EC50 that approximates it; bounds were set here for any values at or beyond the usual limits of such assays; details: source organism: Coxiella burnetii
pKd: −log10 of the molar value.
readout_type: pKd

The recorded pKd for entry "ITLYEYDHF" equals ≤ 4.70
